FYI, the data here is from patent US20170088610A1.

ASSAYED SYSTEM: human nerve growth factor (human, UniProt P01138 122-241)
Sequence (P01138 122-241 limits assumed): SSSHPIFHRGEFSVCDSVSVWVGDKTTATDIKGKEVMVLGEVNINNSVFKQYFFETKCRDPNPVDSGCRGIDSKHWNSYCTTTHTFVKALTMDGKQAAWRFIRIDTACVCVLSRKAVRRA
EXPERIMENTAL DETAILS: cell-based or functional assay
// reported IC50, human NGF-dependent survival of mouse E13.5 trigeminal neurons (1.5 pM NGF) for each item listed
EXPERIMENTAL READOUT: IC50, human NGF-dependent survival of mouse E13.5 trigeminal neurons (1.5 pM NGF) (pM)

BINDER: 8L2-6D5 (CDR-grafted antibody with framework mutation V71K) (Fab, V domains shown, Fab (human IgG2 CH1 + C-kappa, His tag at heavy chain C terminus); also called 8L2-6D5 Fab; 8L2-6D5 (control)) VH: QVQLQESGPGLVKPSETLSLTCTVSGFSLIGYDINWIRQPPGKGLEWIGMIWGDGTTDYNSALKSRVTISKDTSKNQFSLKLSSVTAADTAVYYCARGGYYYGTSYYFDYWGQGTLVTVS VL: DIQMTQSPSSLSASVGDRVTITCRASQDISNHLNWYQQKPGKAPKLLIYYISRFHSGVPSRFSGSGSGTDFTFTISSLQPEDIATYYCQQSKTLPYTFGQGTKLEIKR
REL: =
READOUT VALUE: 462
//
BINDER: clone 3C (Fab) (Fab, V domains shown, same L1, L2, H1, H2 mutations as 3E; See note of m8; also called Fab 3C) VH: QVQLQESGPGLVKPSETLSLTCTVSGFSLIGYDLNWIRQPPGKGLEWIGIIWGDGTTDYNSAVKSRVTISKDTSKNQFSLKLSSVTAADTAVYYCARGGYWYATSYYFDYWGQGTLVTVS VL: DIQMTQSPSSLSASVGDRVTITCRASQSISNNLNWYQQKPGKAPKLLIYYTSRFHSGVPSRFSGSGSGTDFTFTISSLQPEDIATYYCQQERTLPYTFGQGTKLEIKR
REL: =
READOUT VALUE: 5.6
//
BINDER: H19-L129 (combined clone, H1 H2 L1 L2 matured) (Fab, V domains shown, See note of m8; also called H19-L129 Fab; Fab H19-L129) VH: QVQLQESGPGLVKPSETLSLTCTVSGFSLIGYDLNWIRQPPGKGLEWIGIIWGDGTTDYNSAVKSRVTISKDTSKNQFSLKLSSVTAADTAVYYCARGGYYYGTSYYFDYWGQGTLVTVS VL: DIQMTQSPSSLSASVGDRVTITCRASQSISNNLNWYQQKPGKAPKLLIYYTSRFHSGVPSRFSGSGSGTDFTFTISSLQPEDIATYYCQQSKTLPYTFGQGTKLEIKR
REL: =
READOUT VALUE: 9.6
//
BINDER: antibody E3 (Fab) (Fab, V domains shown, Fab with human IgG2 CH1 and human kappa constant domain; His tag at the heavy chain C terminus in the E. coli format; also called Fab E3; 3E Fab) VH: QVQLQESGPGLVKPSETLSLTCTVSGFSLIGYDLNWIRQPPGKGLEWIGIIWGDGTTDYNSAVKSRVTISKDTSKNQFSLKLSSVTAADTAVYYCARGGYWYATSYYFDYWGQGTLVTVS VL: DIQMTQSPSSLSASVGDRVTITCRASQSISNNLNWYQQKPGKAPKLLIYYTSRFHSGVPSRFSGSGSGTDFTFTISSLQPEDIATYYCQQEHTLPYTFGQGTKLEIKR
REL: <
READOUT VALUE: 1.2
